molecular target: UniProt:P29274; experiment: Radioligand binding at human A2AAR expressed in CHO cells; details: read-out: % inhibition at 1 µM (hA2AAR)
MEASUREMENT TYPE: inhibition at 1 µM (%)
Express your answer in %, writing the number without its unit.

>>> observed_value("O=C(NCc1cccc(F)c1)[C@H]1S[C@@H](n2cnc3c(NCc4cccc(I)c4)ncnc32)[C@H](O)[C@@H]1O")
35
>>> observed_value("Cc1cccc(CNC(=O)[C@H]2S[C@@H](n3cnc4c(NCc5cccc(I)c5)ncnc43)[C@H](O)[C@@H]2O)c1")
31
>>> observed_value("O=C(NC1CCCCC1)[C@H]1S[C@@H](n2cnc3c(NCc4cccc(I)c4)ncnc32)[C@H](O)[C@@H]1O")
24
>>> observed_value("CNC(=O)[C@H]1S[C@@H](n2cnc3c(NC)ncnc32)[C@H](O)[C@@H]1O")
35

Task: Fetch value of inhibition at 1 µM on UniProt:P29274 for `Cc1ccccc1CNC(=O)[C@H]1S[C@@H](n2cnc3c(NCc4cccc(I)c4)ncnc32)[C@H](O)[C@@H]1O` .
Output: 26

Task: Fetch value of inhibition at 1 µM on UniProt:P29274 for `O=C(NCc1cccc(Cl)c1)[C@H]1S[C@@H](n2cnc3c(NCc4cccc(I)c4)ncnc32)[C@H](O)[C@@H]1O` .
Output: 44

Task: Fetch value of inhibition at 1 µM on UniProt:P29274 for `CNc1ncnc2c1ncn2[C@@H]1S[C@H](C(=O)NCC2CC2)[C@@H](O)[C@H]1O` .
Output: 38

Task: Fetch value of inhibition at 1 µM on UniProt:P29274 for `CNc1ncnc2c1ncn2[C@@H]1S[C@H](C(=O)NCc2cccc(I)c2)[C@@H](O)[C@H]1O` .
Output: 27

###

Measured inhibition at 1 µM values are reported for all entries that follow.
molecular target: human A2AAR (Homo sapiens, UniProt P29274); test: Radioligand binding at human A2AAR expressed in CHO cells; conditions: read-out: % inhibition at 1 µM (hA2AAR)
Sequence (P29274 whole entry): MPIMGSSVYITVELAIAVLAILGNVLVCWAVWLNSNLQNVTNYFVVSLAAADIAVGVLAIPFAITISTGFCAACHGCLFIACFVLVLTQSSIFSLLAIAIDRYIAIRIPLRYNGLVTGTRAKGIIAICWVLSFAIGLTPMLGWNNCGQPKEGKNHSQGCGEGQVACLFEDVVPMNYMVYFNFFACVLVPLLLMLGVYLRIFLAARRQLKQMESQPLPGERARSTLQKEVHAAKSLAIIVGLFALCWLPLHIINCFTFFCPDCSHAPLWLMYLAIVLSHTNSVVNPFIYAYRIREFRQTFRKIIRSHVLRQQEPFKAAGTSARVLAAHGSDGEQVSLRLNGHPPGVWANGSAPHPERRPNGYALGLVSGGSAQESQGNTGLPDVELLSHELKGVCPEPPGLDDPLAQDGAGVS
Provide the measurement as a number trailed by its unit.

These recorded examples may help you get a feel for the data.
>>> observed_value("COc1ccccc1CNC(=O)[C@H]1S[C@@H](n2cnc3c(NCc4cccc(I)c4)ncnc32)[C@H](O)[C@@H]1O [Compound 5s]")
"28%"
>>> observed_value("Cc1ccc(CNC(=O)[C@H]2S[C@@H](n3cnc4c(NCc5cccc(I)c5)ncnc43)[C@H](O)[C@@H]2O)cc1 [Compound 5r]")
"37%"
>>> observed_value("CNc1ncnc2c1ncn2[C@@H]1S[C@H](C(=O)NC2CCCC2)[C@@H](O)[C@H]1O [Compound 5f]")
"45%"

Task: Tell me measured inhibition at 1 µM for CNC(=O)[C@H]1S[C@@H](n2cnc3c(NC)nc(Cl)nc32)[C@H](O)[C@@H]1O [Compound 4, reference compound] please.
Output: 20%

Task: Tell me measured inhibition at 1 µM for CCNC(=O)[C@H]1S[C@@H](n2cnc3c(NC)ncnc32)[C@H](O)[C@@H]1O [Compound 5b] please.
Output: 20%

Task: Tell me measured inhibition at 1 µM for CCOc1ccccc1CNC(=O)[C@H]1S[C@@H](n2cnc3c(NCc4cccc(I)c4)ncnc32)[C@H](O)[C@@H]1O [Compound 5t] please.
Output: 23%

Task: Tell me measured inhibition at 1 µM for O=C(NCCc1ccccc1)[C@H]1S[C@@H](n2cnc3c(NCc4cccc(I)c4)ncnc32)[C@H](O)[C@@H]1O [Compound 5v] please.
Output: 11%
